// provenance: patent US7834024B2

Tested on: Ramos B-Cell Line Stimulated with IL-4 (JAK-1 and JAK-3 / Stat-6, CD23)
Test: Assay for Ramos B-Cell Line Stimulated with IL-4 (CD23 upregulation, FACS)
Assay type: cell-based
Details: Homo sapiens, Ramos, human Ramos B cells, compound 1 hour, IL-4 50 units/mL for 20-24 hours, anti-CD23-PE FACS; read-out: Example 2 (IC50)
Would you kindly list pIC50 for each of these compounds?
Schema: pIC50 number; meaning minus log10 of the concentration expressed in molar units.

Ask | Fill in pIC50 for CN1CCN(C(=O)c2cccc(Nc3ncc(F)c(Nc4ccc(OCC(N)=O)cc4)n3)c2)CC1 [Compound I-37] tested with Ramos B-Cell Line Stimulated with IL-4 (JAK-1 and JAK-3 / Stat-6, CD23).
Reply | 5.65

Ask | Fill in pIC50 for CCc1cc(Nc2ncc(F)c(Nc3ccc(OCC#N)cc3)n2)cc(C#N)c1Cl [Compound I-104] tested with Ramos B-Cell Line Stimulated with IL-4 (JAK-1 and JAK-3 / Stat-6, CD23).
Reply | 5.94

Ask | Fill in pIC50 for COc1ccc(Nc2nc(Nc3cccc(C#N)c3)ncc2F)cc1Cl [Compound I-18] tested with Ramos B-Cell Line Stimulated with IL-4 (JAK-1 and JAK-3 / Stat-6, CD23).
Reply | 6.57

Ask | Fill in pIC50 for N#CCOc1ccc(Nc2nc(Nc3ccc(C(N)=O)cc3)ncc2F)cc1F [Compound I-101] tested with Ramos B-Cell Line Stimulated with IL-4 (JAK-1 and JAK-3 / Stat-6, CD23).
Reply | 7.47

Ask | Fill in pIC50 for Cc1cnc(Nc2cccc(C(N)=O)c2)nc1Nc1ccc2c(c1)N(C)C(=O)C(C)(C)S2 [II-45] tested with Ramos B-Cell Line Stimulated with IL-4 (JAK-1 and JAK-3 / Stat-6, CD23).
Reply | 6.75

Ask | Fill in pIC50 for CN1CCN(c2ccc(Nc3ncc(F)c(Nc4cccc(OCC(N)=O)c4)n3)cc2C(N)=O)CC1 [Compound I-50] tested with Ramos B-Cell Line Stimulated with IL-4 (JAK-1 and JAK-3 / Stat-6, CD23).
Reply | 6.74

Ask | Fill in pIC50 for N#CCOc1cccc(Nc2nc(Nc3cccc(C(N)=O)c3)ncc2F)c1 [Compound I-45] tested with Ramos B-Cell Line Stimulated with IL-4 (JAK-1 and JAK-3 / Stat-6, CD23).
Reply | 6.37

Ask | Fill in pIC50 for CC(C#N)Oc1ccc(Nc2nc(Nc3ccc(CC#N)cc3)ncc2F)cc1 (stereo not drawn) [Compound I-78] tested with Ramos B-Cell Line Stimulated with IL-4 (JAK-1 and JAK-3 / Stat-6, CD23).
Reply | 6.93

Ask | Fill in pIC50 for NC(=O)c1ccc(Nc2ncc(F)c(Nc3cccc(-c4ncco4)c3)n2)cc1 [Compound I-13] tested with Ramos B-Cell Line Stimulated with IL-4 (JAK-1 and JAK-3 / Stat-6, CD23).
Reply | 6.12

Ask | Fill in pIC50 for Cc1cnc(Nc2cnc3c(c2)OC(C)(C)C(=O)N3)nc1Nc1cnc2c(c1)OC(C)(C)C(=O)N2 [VII-1] tested with Ramos B-Cell Line Stimulated with IL-4 (JAK-1 and JAK-3 / Stat-6, CD23).
Reply | 5.58

Ask | Fill in pIC50 for CCc1cc(Nc2ncc(F)c(Nc3cccc(OCC#N)c3)n2)cc(C#N)c1Cl [Compound I-105] tested with Ramos B-Cell Line Stimulated with IL-4 (JAK-1 and JAK-3 / Stat-6, CD23).
Reply | 4.50

Ask | Fill in pIC50 for N#CCOc1ccc(Nc2nc(Nc3ccc(CC#N)cc3)ncc2F)cc1 [Compound I-64] tested with Ramos B-Cell Line Stimulated with IL-4 (JAK-1 and JAK-3 / Stat-6, CD23).
Reply | 7.10

Ask | Fill in pIC50 for Cc1cnc(Nc2cnc3c(c2)OCC(=O)N3)nc1Nc1cnc2c(c1)OCC(=O)N2 [VII-3] tested with Ramos B-Cell Line Stimulated with IL-4 (JAK-1 and JAK-3 / Stat-6, CD23).
Reply | 6.71

Ask | Fill in pIC50 for CN1CCN(c2ccc(Nc3ncc(F)c(Nc4cccc(OCC#N)c4)n3)cc2C(N)=O)CC1 [Compound I-54] tested with Ramos B-Cell Line Stimulated with IL-4 (JAK-1 and JAK-3 / Stat-6, CD23).
Reply | 7.72

Ask | Fill in pIC50 for CCc1cc(Nc2ncc(F)c(Nc3ccc4c(c3)NC(=O)C(C)(C)O4)n2)cc(C#N)c1Cl [II-25] tested with Ramos B-Cell Line Stimulated with IL-4 (JAK-1 and JAK-3 / Stat-6, CD23).
Reply | 5.85

Ask | Fill in pIC50 for N#Cc1ccc(Nc2ncc(F)c(Nc3ccc(OCC(N)=O)cc3)n2)cc1 [Compound I-24] tested with Ramos B-Cell Line Stimulated with IL-4 (JAK-1 and JAK-3 / Stat-6, CD23).
Reply | 6.61

Ask | Fill in pIC50 for Cc1noc(COc2ccc(Nc3nc(Nc4cccc(C#N)c4)ncc3F)cc2)n1 [Compound I-111] tested with Ramos B-Cell Line Stimulated with IL-4 (JAK-1 and JAK-3 / Stat-6, CD23).
Reply | 5.98

Ask | Fill in pIC50 for Cc1cc(Nc2nc(Nc3ccc(C(N)=O)cc3)ncc2F)cc(C)c1OCC#N [Compound I-90] tested with Ramos B-Cell Line Stimulated with IL-4 (JAK-1 and JAK-3 / Stat-6, CD23).
Reply | 7.04

Ask | Fill in pIC50 for COc1cc(Nc2ncc(F)c(Nc3ccc4c(c3)NC(=O)C(C)(C)O4)n2)cc(OCC#N)c1OC [II-15] tested with Ramos B-Cell Line Stimulated with IL-4 (JAK-1 and JAK-3 / Stat-6, CD23).
Reply | 7.16

Ask | Fill in pIC50 for Cc1cc(Nc2nc(Nc3cccc(C(N)=O)c3)ncc2F)cc(C)c1OCC#N [Compound I-91] tested with Ramos B-Cell Line Stimulated with IL-4 (JAK-1 and JAK-3 / Stat-6, CD23).
Reply | 6.48

Ask | Fill in pIC50 for CN1C(=O)CSc2ccc(Nc3nc(Nc4ccc(C(N)=O)cc4)ncc3F)cc21 [II-4] tested with Ramos B-Cell Line Stimulated with IL-4 (JAK-1 and JAK-3 / Stat-6, CD23).
Reply | 8.27
